Data origin: patent US20250171495A1

target: hepsin (Homo sapiens, UniProt P05981); construct: purchased R&D Systems 4776-SE-010; assay: Fluorogenic kinetic enzyme inhibitor assay, hepsin; format: biochemical; conditions: read-out: Hepsin IC50
Sequence (P05981 163-417 limits assumed): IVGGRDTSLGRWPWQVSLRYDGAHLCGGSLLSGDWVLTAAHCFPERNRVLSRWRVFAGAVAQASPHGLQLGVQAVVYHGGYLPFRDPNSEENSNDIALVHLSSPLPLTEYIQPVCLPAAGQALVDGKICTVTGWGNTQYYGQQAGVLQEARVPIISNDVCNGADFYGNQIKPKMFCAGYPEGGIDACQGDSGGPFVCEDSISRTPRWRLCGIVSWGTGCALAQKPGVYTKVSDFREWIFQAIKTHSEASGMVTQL
Sequence (P05981 1-162 partner limits assumed): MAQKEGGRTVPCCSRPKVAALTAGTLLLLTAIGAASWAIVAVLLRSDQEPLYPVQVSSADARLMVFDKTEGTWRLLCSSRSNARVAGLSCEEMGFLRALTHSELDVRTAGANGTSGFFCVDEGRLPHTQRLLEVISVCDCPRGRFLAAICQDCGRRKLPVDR
Test readout: IC50

Molecule | Experimental system | IC50
N=C(N)NCCC[C@@H](NC(=O)[C@H](Cc1ccccc1)NC(=O)[C@H](CCC(N)=O)NCCc1ccccc1)C(=O)c1nc2ccccc2s1 | hepsin (Homo sapiens, UniProt P05981) | 9.43 nM

Which IC50 reading was recorded for the molecule N=C(N)NCCC[C@H](NC(=O)[C@H](CCC(=O)OCc1ccccc1)NC(=O)OCc1ccccc1)C(=O)c1nc2ccccc2s1 ?
> 20000 nM

Which IC50 reading was recorded for the molecule CCC(C)[C@H](NC(C)=O)C(=O)N[C@@H](CO)C(=O)N[C@@H](Cc1ccccc1)C(=O)N[C@H](CCCNC(=N)N)C(=O)c1nc2ccccc2s1 (stereo partly drawn) ?
2.08 nM

Which IC50 reading was recorded for the molecule CC(=O)N[C@H](Cc1c[nH]c2ccccc12)C(=O)N[C@@H](CCCCNC(=N)N)C(=O)N[C@@H](CCC(C)C)C(=O)N[C@@H](CCCNC(=N)N)C(=O)c1nc2ccccc2s1 ?
0.45 nM

Which IC50 reading was recorded for the molecule CCC(C)[C@H](NC(C)=O)C(=O)N[C@@H](CCSC)C(=O)N[C@@H](Cc1ccccc1)C(=O)N[C@@H](CCCNC(=N)N)C(=O)c1nc2ccccc2s1 (stereo partly drawn) ?
1.31 nM

Which IC50 reading was recorded for the molecule N=C(N)NCCC[C@H](NC(=O)[C@H](Cc1ccccc1)NC(=O)[C@H](CCC(N)=O)NC(=O)OCc1ccccc1)C(=O)c1nc2ccccc2s1 ?
1.25 nM

Which IC50 reading was recorded for the molecule CC(=O)N[C@H]1Cc2ccc(cc2)Oc2cccc(c2)C[C@@H](C(=O)N[C@@H](CCCNC(=N)N)C(=O)c2nc3ccccc3s2)NC(=O)[C@H](CC(C)C)NC1=O [VD5064B] ?
0.168 nM

Which IC50 reading was recorded for the molecule N=C(N)NCCC[C@@H](NC(=O)[C@H](Cc1ccccc1)NC(=O)[C@H](CCC(N)=O)NCc1ccccc1)C(=O)c1nc2ccccc2s1 ?
0.83 nM

Which IC50 reading was recorded for the molecule N=C(N)NCCC[C@H](NC(=O)[C@H](Cc1ccccc1)NC(=O)OCC1c2ccccc2-c2ccccc21)C(=O)c1nc2ccccc2s1 ?
2680 nM

* * *

Collected pIC50 values appear next to each entry.
biological target: matriptase (Homo sapiens); construct: purchased R&D Systems 3946-SEB-010; assay: Fluorogenic kinetic enzyme inhibitor assay, matriptase; assay type: biochemical
Sequence (Q9Y5Y6 615-855 limits assumed): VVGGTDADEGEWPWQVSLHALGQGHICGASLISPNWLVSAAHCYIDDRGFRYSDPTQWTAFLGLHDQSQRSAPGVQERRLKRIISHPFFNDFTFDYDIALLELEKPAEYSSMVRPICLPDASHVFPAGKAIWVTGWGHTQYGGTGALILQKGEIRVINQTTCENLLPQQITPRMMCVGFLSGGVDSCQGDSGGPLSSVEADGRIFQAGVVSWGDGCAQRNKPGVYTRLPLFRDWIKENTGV
Answer as the number alone; pIC50 is minus log10 of concentration in mol/L.

Which pIC50 reading was recorded for the compound CC(=O)N[C@@H](CO)C(=O)N[C@@H](Cc1cncn1COCc1ccccc1)C(=O)N[C@@H](CC(C)C)C(=O)N[C@H](CCCNC(=N)N)C(=O)c1nc2ccccc2s1 [MM4036-1] ?
6.86

Which pIC50 reading was recorded for the compound CCC(C)[C@H](NC(C)=O)C(=O)N[C@@H](CO)C(=O)N[C@@H](Cc1ccccc1)C(=O)N[C@@H](CCCNC(=N)N)C(=O)c1nc2ccccc2s1 (stereo partly drawn) [MM4009-2] ?
8.66

Which pIC50 reading was recorded for the compound CC(=O)N1CCC[C@H]1C(=O)N[C@@H](CO)C(=O)N[C@@H](CCCCN)C(=O)N[C@H](CCCNC(=N)N)C(=O)c1nc2ccccc2s1 [MM3194C] ?
8.24

Which pIC50 reading was recorded for the compound CC(=O)N[C@H]1Cc2ccc(cc2)OCCCC[C@@H](C(=O)N[C@H](CCCNC(=N)N)C(=O)c2nc3ccccc3s2)NC(=O)[C@H](Cc2ccccc2)NC1=O [VD4111A] ?
6.48

Which pIC50 reading was recorded for the compound CCC(C)[C@H](NC(C)=O)C(=O)N[C@@H](CCC(N)=O)C(=O)N[C@H](C(=O)N[C@@H](CCCNC(=N)N)C(=O)c1nc2ccccc2s1)C(C)C (stereo partly drawn) [MM3180-2] ?
9.12

Which pIC50 reading was recorded for the compound CCC(C)[C@H](NC(C)=O)C(=O)N[C@@H](CCC(=O)O)C(=O)N[C@@H](Cc1ccccc1)C(=O)N[C@@H](CCCNC(=N)N)C(=O)c1nc2ccccc2s1 (stereo partly drawn) [MM4037-2] ?
8.62
